Assign melting point to each entry below.

Prompt line: Request the reported melting point associated with COC(=O)C=CC=CCS(=O)c1ccccc1 (stereo not drawn)
Response line: 82 to 84 °C

Prompt line: Value lookup for melting point; key = CC(C)(C)CN1c2ccccc2C(C)(C)C12C=Nc1c(ccc3ccccc13)O2 (stereo not drawn)
Response line: 167 to 170 °C

Prompt line: Given the entry `Cc1cc(-c2cnn3c(C(F)(F)F)cc(-c4ccc(C(F)(F)F)c(C)c4)nc23)ccn1` , report its measured melting point.
Response line: 237 °C

====

Kindly supply the reported melting point values for the records listed here.

Prompt line: Quick check: melting point of `O=C(O)c1cnc(Nc2cc3c4c(c2)CCCC4CCC3)nc1` ?
Response line: 296 to 298 °C

Prompt line: Which value of melting point has been reported for CC(C)C(C)C=CC(C)C1CCC2C3CC(=O)C4CC=CCC4(C)C3CCC12C (stereo not given) in the records?
Response line: 118 to 120 °C

Prompt line: Recorded melting point of O=C(NC(NCCc1ccccc1)C(Cl)(Cl)Cl)c1ccncc1 (stereo not given) , please.
Response line: 115 to 117 °C

Prompt line: Give the measured melting point of `O=c1[nH]cnc2ccc(F)cc12` .
Response line: 252 to 255 °C

Prompt line: If you can, please state the reported melting point value of `COc1ccc(-c2ccc(N(C)C)cc2)cc1C=O` .
Response line: 113 to 115 °C

====

Give measured melting point for each item. Keep answers brief.

Prompt line: // lookup melting point for `CCOC(=O)c1cc(C#Cc2ccccn2)c2ccccc2n1`
Response line: 129 to 131 °C

Prompt line: Could you tell me which melting point is on file for O=C1c2cccc3cccc(c23)C1Br (stereo not given) ?
Response line: 100 to 105 °C

Prompt line: Entry CC(=O)NC1(C)CCCc2nc(OCc3ccccc3)ccc21 (stereo not given) : reported melting point = ?
Response line: 153 to 154 °C

Prompt line: Need melting point of `CCOC(=O)C(Cc1cccc(OC)c1Oc1ccc([N+](=O)[O-])cc1)(NC(C)=O)C(=O)OCC` , thanks.
Response line: 189 to 190 °C

Prompt line: Give the measured melting point of `O=C1CCCN(C(=O)c2ccc([N+](=O)[O-])cc2Cl)c2ccsc21` .
Response line: 180 to 185 °C

Prompt line: Request the reported melting point associated with `COc1ccccc1-c1nc(N)ncc1-c1ccc(=O)n(C(C)C)n1`
Response line: 170 °C

Prompt line: # melting point lookup, item `COc1ccc(N2CCOCC2)c2sc(NC(=O)N3C[C@@H]4CC[C@H]3C4)nc12`
Response line: 149 °C

Prompt line: Query: melting point; subject: COc1ccc(C(=O)Nc2c(Cl)cncc2Cl)c2c1OCC2CC(=O)NCc1ccc(Cl)cc1 (stereo not given)
Response line: 283 to 286 °C

Prompt line: Sample `O=C(c1ccccc1)N1CC(=O)N(CCc2ccccc2)C(=O)C1` — what was its melting point?
Response line: 102 °C

Prompt line: Look up melting point for this compound: `CCCN(Cc1cccc(-c2noc(C)n2)c1)C(=O)Nc1ccc(-c2ccccc2S(=O)(=O)NC(C)(C)C)cc1`
Response line: 150 to 151 °C

====

READOUT_TYPE: melting point

Prompt line: I'd like to know its melting point. The molecule in question is CCOC(=O)CCC(NC(=O)c1ccc(CNCC2CNc3nc(NC(=O)C(C)(C)C)nc(O)c3C2)cc1)C(=O)OCC (configuration not stated)
Response line: 146 to 147 °C

Prompt line: Recorded melting point of `C=C1N(c2ccccc2)C(=O)OC12CCN(C(=O)N1CCN(C)CC1)CC2` , please.
Response line: 139 to 140 °C

Prompt line: # lookup: melting point of `CN(C)c1nc2sc3c(NCCc4c[nH]cn4)ncnc3c2c2c1CCC2(C)C`
Response line: 261 to 262 °C

Prompt line: // query melting point value for entry `COC(=O)c1sc(C)c(C)c1OC`
Response line: 37 to 39 °C

Prompt line: Which measured melting point value corresponds to `COc1cc2c(cc1Nc1ncc(Cl)c(Nc3ccc(N4CCOCC4)cc3OC)n1)CCN(CC(=O)N(C)C)CC2` ?
Response line: 67 to 76 °C

Prompt line: Quick one: melting point of CC1=C(C(=O)OCCN2CCCCC2)C(c2ccccc2C(F)(F)F)c2c(ccnc2OC(C)C)N1 (configuration not stated) ?
Response line: 118 to 120 °C

Prompt line: What does the record list as melting point for `COc1ccc(CC(=O)c2ccc(OC)c(F)c2)cc1F` ?
Response line: 151 to 152 °C

====

Give melting point for every item shown.

Prompt line: Which melting point is listed for `CNCCCOc1ccc(-c2ccc(C(=O)O)cc2)cc1-c1ccc2c(c1)C(C)(C)CCC2(C)C` ?
Response line: 242 °C

Prompt line: // lookup melting point for CCCCCCOc1ccc(CC2SC(=O)NC2=O)cc1 (stereo unspecified)
Response line: 52 to 54 °C

Prompt line: Need melting point, item `COC(=O)COc1cccc(C=Cc2nc(-c3ccccc3)c(-c3ccccc3)o2)c1`
Response line: 79 to 82 °C

Prompt line: Record request: melting point value, item CC(=O)OC1=C(C=O)C=C2OCCC2C1 (stereo unspecified)
Response line: 68 to 70 °C

Prompt line: Given O=C(c1ccc(F)cc1)N1CCCC(c2nc(-c3ccc(F)cc3)no2)C1 (stereo unspecified) , state its recorded melting point.
Response line: 118 to 122 °C

Prompt line: Could you share which melting point value was measured for `c1ccc(-c2ccc3c(c2)CCN(Cc2c[nH]c4ncccc24)C3)cc1` ?
Response line: 211 to 213 °C

Prompt line: Given the compound `O=C(Nc1cnc2c(c1)nc1n2CCC1)c1cc2cc(F)ccc2n1Cc1cccc(F)c1` , what is its reported melting point?
Response line: 227 to 229 °C

Prompt line: So what's the measured melting point for this one? CCCCOCC1OC(n2c(Cl)nc3cc(Cl)c(Cl)cc32)C(O)C1O (stereo unspecified)
Response line: 70 to 72 °C

Prompt line: Could you share which melting point value was measured for `Nc1cc(Cl)nc(SC/C=C/C(=O)N2CCOCC2)n1` ?
Response line: 154 to 157 °C

Prompt line: State the recorded melting point for this entry: CCOC(=O)C(Sc1ccc(O)cc1)c1ccc(-c2cccs2)cc1 (stereo unspecified)
Response line: 103 °C

Prompt line: # get_value(readout='melting point', item= `O=C1CCC(c2ccc(-c3ccc(=O)[nH]n3)cc2)=NN1` )
Response line: > 250 °C

Prompt line: I'd like to know its melting point. The compound in question is `Cc1cccnc1C(=O)c1[nH]c2cc(Cl)ccc2c1N`
Response line: 171 to 172 °C

Prompt line: Return reported melting point; argument: `CSCC1(c2onc(-c3ccc(O)cc3)c2-c2ccccc2)CC1`
Response line: 176 to 177 °C

Prompt line: Please give the measured melting point for this compound: `O=C(N[C@@H]1CCc2ccccc21)C(F)(F)F`
Response line: 152 to 153 °C

Prompt line: Query: melting point; subject: `N=C(OCC1CC1)N1CCC(c2nsc3ccccc23)CC1`
Response line: 85 to 87 °C

Prompt line: What measured melting point goes with `CCCCNc1nn(C(=O)OC)c2c1c(=O)n(CCC)c1ccccc21` ?
Response line: 147 to 149 °C

====

Task for the reader: assign each of the following compounds its reported melting point.

Prompt line: What does the data say about its melting point? Entry: CN1CCc2sc(C=C3C(=O)N4C(C(=O)O)=CSC34)cc2C1 (stereo not given)
Response line: > 25 °C

Prompt line: What value of measured melting point is listed for `CCC(=O)NCCc1cnn2ccc3occc3c12` ?
Response line: 104 to 106 °C

Prompt line: Which measured melting point value corresponds to `CC(C)(C)C(=O)c1ccc(C(=O)N[C@@H](Cc2ccccc2)C(N)=O)cc1` ?
Response line: 120 to 123 °C

Prompt line: # lookup: melting point of `C#CCN(C)CC1=Cc2ccccc2Oc2ccccc21`
Response line: 66 to 67 °C

Prompt line: Quick one: melting point of `CCOC(=O)C1=C(C)NC(C)=C(C(=O)OCC)C1c1ccccc1/C=C/C(=O)OC(C)(C)C` ?
Response line: 143 to 145 °C

====

READOUT_TYPE: melting point

Prompt line: # input compound: `COc1nc2ccccc2cc1NC(=O)N1CCN(c2cccc(O)c2)CC1` ; wanted: its melting point
Response line: 190 to 191 °C

Prompt line: Returns the measured melting point for the input compound. Input: COc1cccc2c1OC1C3CCC4(C(=O)N(CC5CC5)CCC214)C(C(C)(O)C(C)(C)C)C3 (configuration not stated)
Response line: 205 to 206 °C

Prompt line: Fill in the blank: the reported melting point of `CC(C)(C)c1nc(C=O)c[nH]1` is ____.
Response line: 194 to 195 °C

Prompt line: Look at this compound and give its reported melting point. `COc1c(-c2ccc(S(C)(=O)=O)cc2)cnn(-c2cccc(Cl)c2)c1=O`
Response line: 112 to 114 °C

Prompt line: Entry under review: `CCCCCCCOc1ccc(-c2ncc(C#N)c(Cl)n2)cc1` . Reported melting point?
Response line: 133 to 135 °C

Prompt line: Give the measured melting point of `N#Cc1ccccc1COc1cccc(Cl)c1` .
Response line: 56 °C

Prompt line: Entry under review: `Cc1nn(CCO)c(C)c1Sc1ccc(Cl)cc1` . Reported melting point?
Response line: 88.9 to 90.3 °C

Prompt line: Entry `CCCC(=Cc1ccsc1)[N+](=O)[O-]` has what melting point?
Response line: 52 to 54.5 °C

Prompt line: What value of melting point has been recorded for this entry: `ClC(Cl)=CCOc1cc(Cl)c(OCc2ccc3ccccc3c2)c(Cl)c1`
Response line: 86.7 °C

Prompt line: Recorded melting point of `COCCn1cc(C(=O)O)c2c(C(=O)N3CCOCC3)cccc21` , please.
Response line: 201 to 203 °C

Prompt line: // query melting point value for entry `CCOC(=O)C(CC(=O)c1ccccc1Cl)(NC(C)=O)C(=O)OCC`
Response line: 157 to 158 °C

Prompt line: Quick one: melting point for CCCCCCOc1ccc(C(=O)NCC2CCCC2(C)C)cc1 (single isomer, unassigned; (+)) ?
Response line: 68 to 69 °C

Prompt line: Requested read-out: melting point. Entry: `COC(=O)COc1c(Cl)cc(C(=O)CBr)cc1Cl`
Response line: 89 to 90 °C

Prompt line: Quick one: melting point of `COC(=O)c1cc(-c2ccccc2)cc2c1C(C)(C)CCC2(C)C` ?
Response line: 118 °C

Prompt line: Which melting point value belongs to `COc1ccc(-n2cc(C(=O)O)cn2)cc1` ?
Response line: 235 to 237 °C

Prompt line: Need melting point of `CON=C(C(=O)O)c1csnn1` , thanks.
Response line: 110 to 113 °C

Prompt line: If you can, please state the reported melting point value of `CNC(=O)c1[nH]c(=O)[nH]c1C` .
Response line: > 300 °C
